Please respond with reported GI50 for every item in the list.
Test system: OVCAR-8
test description: NCI tumour cell line growth inhibition, 48 h
Active and inactive are the calls of the source. Rule as the data show it: active = GI50 up to about 1.1 µM and inactive = higher. Peptide text beside a SMILES is read from it. * marks the point of attachment. Cbz = O=C(OCc1ccccc1)*; OBn = c1ccc(CO*)cc1

I have 2 molecules here; please give me GI50 for each one.
1. CCOC(=O)c1nc2ccc(C(F)(F)F)cc2nc1Oc1cc(OC)cc(OC)c1
2. O=C1/C(=C/c2ccc(O)cc2)Oc2ccccc21

1: > 100 µM (inactive); 2: > 100 µM (inactive)

For every listed record, write down its GI50.
1. C[N+](C)(C)C(C1=CCCC1=O)c1ccccc1 (stereo not given)
2. Cc1ccccc1C(=N)c1ccccc1Cc1cccc2ccccc12

["25 µM (inactive)", "32 µM (inactive)"]

Parameters: items (list). Returns: GI50 for each item.
1. COC(=O)CNC(=O)C(C)NC(=O)C(CC(=O)OCc1ccccc1)NC(=O)OCc1ccccc1 (stereo not drawn) (Cbz-Asp(OBn)-Ala-Gly-OMe; configuration not given here)
2. CCOC(=O)/C=C(/C)Nc1nc2c(c(C(=O)OC)c1C#N)CCCC2
3. Cn1c(=O)c2ccccc2c2ccccc21
4. Cc1nc(-c2ccc([N+](=O)[O-])cc2)cn2c1nc1ccccc12

81.8 µM (inactive)
> 100 µM (inactive)
45.9 µM (inactive)
> 100 µM (inactive)

State the recorded GI50 for every item in the following list.
1. CC1=CC=NN2C(=O)[C@H](C)C2C1 (stereo not given in full)
2. CC1=CC(C2/C(=N/O)C=C(C)CC2(C)C)C(O)C(C)(C)C1 (stereo not given)

1. > 100 µM (inactive)
2. 17.5 µM (inactive)

Data origin, for the record: ChEMBL document CHEMBL1201862
